Ki, 5-hydroxytryptamine receptor 7 (Homo sapiens): measured values
Field format: number, assumed nM, no unit text.

Examples from the recorded data:
* CC(C)c1ccccc1OCCN1CCC(N(CC2CC2)S(=O)(=O)c2cnn(C)c2)CC1 | 56
* Cn1cc(S(=O)(=O)N(CC2CC2)C2CCN(CCOc3ccccc3C(C)(C)C)CC2)cn1 | 49
* CN(C1CCN(CCOc2ccccc2-c2ccccc2)CC1)S(=O)(=O)c1cnn(C)c1 | 7
* CC(C)c1ccccc1OCCN1CCC(N(CC2CC2)S(=O)(=O)c2cccc(F)c2)CC1 | 56
* CC(C)c1ccccc1OCCN1CCC(N(CC2CC2)S(=O)(=O)c2ccc(F)cc2)CC1 | 28
* CC(C)c1ccccc1OCCN1CCC(N(C)S(=O)(=O)c2cccc(F)c2)CC1 | 18
* CC(C)c1ccccc1OCCN1CCC(N(C)S(=O)(=O)c2ccccc2)CC1 | 9
* CC(C)c1ccccc1OCCN1CCC(N(C)S(=O)(=O)c2ccc(F)cc2)CC1 | 13

Req: Recall the reported Ki of CN(C1CCN(CCOc2ccccc2C(C)(C)C)CC1)S(=O)(=O)c1ccc(F)cc1 on 5-hydroxytryptamine receptor 7 (Homo sapiens) and write it down.
Sequence (P34969 whole entry): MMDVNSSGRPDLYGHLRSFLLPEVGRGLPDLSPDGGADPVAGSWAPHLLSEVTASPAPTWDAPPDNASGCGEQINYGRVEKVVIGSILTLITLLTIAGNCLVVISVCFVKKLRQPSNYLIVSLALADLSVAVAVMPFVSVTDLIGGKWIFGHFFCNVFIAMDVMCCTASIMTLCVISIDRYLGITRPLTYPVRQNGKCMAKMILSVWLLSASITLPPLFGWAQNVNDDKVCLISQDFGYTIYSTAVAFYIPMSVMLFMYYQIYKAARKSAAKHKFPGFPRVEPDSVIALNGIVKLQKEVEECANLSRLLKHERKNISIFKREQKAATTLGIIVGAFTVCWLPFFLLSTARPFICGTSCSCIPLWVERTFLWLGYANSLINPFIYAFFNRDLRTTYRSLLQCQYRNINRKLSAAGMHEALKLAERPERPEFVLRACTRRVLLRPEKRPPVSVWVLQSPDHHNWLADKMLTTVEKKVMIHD
Resp: 58

Req: Recall the reported Ki of CN(C1CCN(CCOc2ccccc2-c2ccccc2)CC1)S(=O)(=O)c1ccccc1 on 5-hydroxytryptamine receptor 7 (Homo sapiens) and write it down.
Resp: 100

Req: Recall the reported Ki of O=S(=O)(c1ccc(F)cc1)N(CC1CC1)C1CCN(CCOc2ccccc2-c2ccccc2)CC1 on 5-hydroxytryptamine receptor 7 (Homo sapiens) and write it down.
Resp: 18

Req: Recall the reported Ki of CC(C)c1ccccc1OCCN1CCC(N(C)S(=O)(=O)c2cnn(C)c2)CC1 on 5-hydroxytryptamine receptor 7 (Homo sapiens) and write it down.
Resp: 10

Req: Recall the reported Ki of CN(C1CCN(CCOc2ccccc2C(C)(C)C)CC1)S(=O)(=O)c1cnn(C)c1 on 5-hydroxytryptamine receptor 7 (Homo sapiens) and write it down.
Resp: 58

Req: Recall the reported Ki of CN(C1CCN(CCOc2ccccc2-c2ccccc2)CC1)S(=O)(=O)c1ccc(F)cc1 on 5-hydroxytryptamine receptor 7 (Homo sapiens) and write it down.
Resp: 5

Req: Recall the reported Ki of Cn1cc(S(=O)(=O)N(CC2CC2)C2CCN(CCOc3ccccc3-c3ccccc3)CC2)cn1 on 5-hydroxytryptamine receptor 7 (Homo sapiens) and write it down.
Resp: 10

Req: Recall the reported Ki of CN(C1CCN(CCOc2ccccc2C(C)(C)C)CC1)S(=O)(=O)c1ccccc1 on 5-hydroxytryptamine receptor 7 (Homo sapiens) and write it down.
Resp: 70

Req: Recall the reported Ki of CC(C)(C)c1ccccc1OCCN1CCC(N(CC2CC2)S(=O)(=O)c2ccc(F)cc2)CC1 on 5-hydroxytryptamine receptor 7 (Homo sapiens) and write it down.
Resp: 53

Req: Recall the reported Ki of CN(C1CCN(CCOc2ccccc2C(C)(C)C)CC1)S(=O)(=O)c1cccc(F)c1 on 5-hydroxytryptamine receptor 7 (Homo sapiens) and write it down.
Resp: 68
